A collection of molecules and their measured KOR α ± SEM
Target: human KOR (Homo sapiens, UniProt P41145)
Construct: expressed in transfected cells; host or cells: CHO cells (University of Ferrara), co-expressing Gαqi5
Sequence (P41145 whole entry): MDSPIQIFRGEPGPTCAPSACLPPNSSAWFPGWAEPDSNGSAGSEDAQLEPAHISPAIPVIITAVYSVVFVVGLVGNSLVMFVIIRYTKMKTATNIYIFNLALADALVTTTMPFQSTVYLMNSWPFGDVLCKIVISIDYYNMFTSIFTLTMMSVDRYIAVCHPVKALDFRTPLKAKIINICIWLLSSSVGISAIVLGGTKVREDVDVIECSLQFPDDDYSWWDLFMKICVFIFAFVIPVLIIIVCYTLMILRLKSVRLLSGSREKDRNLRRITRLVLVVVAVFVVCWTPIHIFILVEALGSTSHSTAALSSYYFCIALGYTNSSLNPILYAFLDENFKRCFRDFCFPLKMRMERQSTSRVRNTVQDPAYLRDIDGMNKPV
Test: Calcium mobilization functional assay, agonist mode
Assay type: cell-based
Details: efficacy (intrinsic activity), Emax relative to dynorphin A; CHO cells co-expressing human KOR and Gαqi5; mean ± SEM, n = 5; SEM
Where a SMILES comes first, the peptide text is derived from it. Bridges are numbered along the chain shown (N, C = ends). [ ]: non-standard residue; d: D form. Nle = CCCC[C@H](N)C(=O)O

MOLECULE: CSCC[C@H](NC(=O)[C@H](CC(C)C)NC(=O)CNC(=O)[C@@H]1CC(=O)NCCCC[C@@H](NC(=O)[C@@H](N)Cc2ccc(O)cc2)C(=O)N[C@@H](Cc2ccccc2)C(=O)N[C@@H](Cc2ccccc2)C(=O)N1)C(N)=O [compound 7, Tyr-[D-Lys-Phe-Phe-Asp]-Gly-Leu-Met-NH2] (H-Y[dK]FFDGLM-NH2; lactam 2-5)
KOR α ± SEM: 1.06

MOLECULE: CSCC[C@H](NC(=O)[C@H](CC(C)C)NC(=O)CNC(=O)[C@H](Cc1ccccc1)NC(=O)[C@H](Cc1ccccc1)NC(=O)[C@H](CCC(N)=O)NC(=O)[C@@H]1CC(=O)NCCCC[C@@H](NC(=O)[C@@H](N)Cc2ccc(O)cc2)C(=O)N[C@@H](Cc2ccccc2)C(=O)N[C@@H](Cc2ccccc2)C(=O)N1)C(N)=O [compound 4] (H-Y[dK]FFDQFFGLM-NH2; lactam 2-5)
KOR α ± SEM: 0.92

MOLECULE: CCCC[C@H](NC(=O)[C@H](CC(C)C)NC(=O)[C@@H](Cc1c[nH]c2ccccc12)NC(=O)[C@H](Cc1ccccc1)NC(=O)[C@@H](Cc1c[nH]c2ccccc12)NC(=O)[C@H](CC(N)=O)NC(=O)[C@@H]1CC(=O)NCCCC[C@@H](NC(=O)[C@@H](N)Cc2ccc(O)cc2)C(=O)N[C@@H](Cc2ccccc2)C(=O)N[C@@H](Cc2ccccc2)C(=O)N1)C(N)=O [compound 2] (H-Y[dK]FFDN[dW]F[dW]L[Nle]-NH2; lactam 2-5)
KOR α ± SEM: 0.99
